Attribution: ChEMBL document CHEMBL1208693

Tested on: Saccharomyces cerevisiae
test summary: Antifungal activity against Saccharomyces cerevisiae KE743 […] after 2 days by broth-microdilution method
Assay type: functional
study conditions: KE743, 48 h
reported metric: log10 MIC (log10 of the value in µg/mL)

[
  {
    "compound": "O=C(NCc1ccc(Oc2ccccc2)s1)c1cnc2[nH]ccc2c1",
    "log10 MIC": -0.70
  },
  {
    "compound": "OC(Cn1cncn1)(Cn1cncn1)c1ccc(F)cc1F [FLUCONAZOLE]",
    "log10 MIC": 0.80
  },
  {
    "compound": "Nc1ccc(C(=O)NCc2ccc(Oc3cccc(F)c3)s2)cn1",
    "log10 MIC": 0.19
  },
  {
    "compound": "O=C(NCc1ccc(Oc2cccc(F)c2)s1)c1ccc2ncccc2c1",
    "log10 MIC": -1.60
  },
  {
    "compound": "Nc1ncccc1C(=O)NCc1ccc(Oc2cccc(F)c2)s1",
    "log10 MIC": -1.00
  },
  {
    "compound": "Nc1ccc(C(=O)NCc2ccc(Oc3ccccc3)s2)c(N)n1",
    "log10 MIC": 0.19
  },
  {
    "compound": "C[C@@H]1[C@H](O)[C@@H](C)/C=C/C=C/C=C/C=C/C=C/C=C/C=C/[C@H](O[C@@H]2O[C@H](C)[C@@H](O)[C@H](N)[C@@H]2O)C[C@@H]2O[C@](O)(C[C@@H](O)C[C@@H](O)[C@H](O)CC[C@@H](O)C[C@@H](O)CC(=O)O[C@H]1C)C[C@H](O)[C@H]2C(=O)O [AMPHOTERICIN B]",
    "log10 MIC": -0.11
  },
  {
    "compound": "Nc1ccc(C(=O)NCc2ccc(Oc3ccc(F)cc3)s2)c(N)n1",
    "log10 MIC": -0.11
  }
]

====

Tested on: Aspergillus fumigatus
test summary: Antifungal activity against Aspergillus fumigatus Tsukuba after 2 days by broth-microdilution method
Assay type: functional
study conditions: 48 h

[
  {
    "structure": "O=C(NCc1ccc(Oc2cccc(F)c2)s1)c1ccc2ncccc2c1",
    "unit of measurement": "µg/mL",
    "MIC": 1.56
  },
  {
    "structure": "Nc1ccc(C(=O)NCc2ccc(Oc3ccc(F)cc3)s2)c(N)n1",
    "unit of measurement": "µg/mL",
    "MIC": 0.78
  },
  {
    "structure": "Nc1ncccc1C(=O)NCc1ccc(Cc2ccccc2)s1",
    "unit of measurement": "µg/mL",
    "MIC": 0.78
  },
  {
    "structure": "Nc1ccc(C(=O)NCc2ccc(Oc3ccccc3)s2)c(N)n1",
    "unit of measurement": "µg/mL",
    "MIC": 1.56
  },
  {
    "structure": "C[C@@H]1[C@H](O)[C@@H](C)/C=C/C=C/C=C/C=C/C=C/C=C/C=C/[C@H](O[C@@H]2O[C@H](C)[C@@H](O)[C@H](N)[C@@H]2O)C[C@@H]2O[C@](O)(C[C@@H](O)C[C@@H](O)[C@H](O)CC[C@@H](O)C[C@@H](O)CC(=O)O[C@H]1C)C[C@H](O)[C@H]2C(=O)O",
    "unit of measurement": "µg/mL",
    "MIC": 0.78
  },
  {
    "structure": "O=C(NCc1ccc(Oc2ccccc2)s1)c1cnc2[nH]ccc2c1",
    "unit of measurement": "µg/mL",
    "MIC": 3.13
  },
  {
    "structure": "Nc1ncccc1C(=O)NCc1ccc(Oc2cccc(F)c2)s1",
    "unit of measurement": "µg/mL",
    "MIC": 0.78
  }
]
